# Test system: Escherichia coli TOP10
# experimental-details: shrunken log2 fold change of peptide-encoding DNA abundance (4.5 h post-induction vs induction); higher = less antimicrobial activity (less host growth inhibition)
# test-context: time post-induction: 4.5 h; library: site-saturation at positions 5, 18, 19, 20
Quick reference for shrunken log2 fold change among some sequences
Output: the number by itself.

In [3]: df
Out[3]:
                  residues  reading
0  RRIRYRPPRLPRPRPRPYSEPRP   -0.199
1  RRIRHRPPRLPRPRPRPLWYPRP   -0.923
2  RRIRHRPPRLPRPRPRPWLYPRP   -0.217
3  RRIRLRPPRLPRPRPRPHANPRP   -0.293
4  RRIRERPPRLPRPRPRPKGAPRP    0.216

[Q] Given `RRIRWRPPRLPRPRPRPIWEPRP` , state its recorded shrunken log2 fold change.
[A] 0.00194

[Q] Reported shrunken log2 fold change for `RRIRIRPPRLPRPRPRPMPSPRP` : what is it?
[A] -0.0227

[Q] Reported shrunken log2 fold change, sequence `RRIRCRPPRLPRPRPRPTHTPRP` : ____
[A] 0.388

[Q] Would you kindly share the measured shrunken log2 fold change for `RRIRIRPPRLPRPRPRPLNYPRP` ?
[A] -0.384

[Q] # input sequence: `RRIRARPPRLPRPRPRPDPEPRP` ; wanted: its shrunken log2 fold change
[A] 0.939

[Q] Any idea what shrunken log2 fold change was measured for `RRIRLRPPRLPRPRPRPYHWPRP` ?
[A] -0.188

[Q] Endpoint output: shrunken log2 fold change of `RRIRSRPPRLPRPRPRPPEYPRP` . Value?
[A] -0.154

---

Below, each entry is listed with its recorded shrunken log2 fold change.
# Test system: Escherichia coli TOP10
# experimental-details: shrunken log2 fold change of peptide-encoding DNA abundance (4.5 h post-induction vs induction); higher = less antimicrobial activity (less host growth inhibition)
# test-context: time post-induction: 4.5 h; library: site-saturation at positions 5, 18, 19, 20
Form field (numeric): enter value without unit.

>>> print(df.to_string())
                  residues            recorded_metric  reading
0  RRIRWRPPRLPRPRPRPHNIPRP  shrunken log2 fold change   -0.691
1  RRIRSRPPRLPRPRPRPYDYPRP  shrunken log2 fold change   -0.305
2  RRIRARPPRLPRPRPRPYMTPRP  shrunken log2 fold change   -0.256
3  RRIRFRPPRLPRPRPRPAKYPRP  shrunken log2 fold change   -0.381
4  RRIRCRPPRLPRPRPRPPEGPRP  shrunken log2 fold change    0.926

[Q] I'd like to know its shrunken log2 fold change. The sequence in question is `RRIRGRPPRLPRPRPRPRTVPRP`
[A] 0.448

[Q] Item under review: `RRIRCRPPRLPRPRPRPQPEPRP` . Reported shrunken log2 fold change?
[A] 0.13

[Q] Bench note: what shrunken log2 fold change did `RRIRDRPPRLPRPRPRPFFTPRP` show?
[A] -0.024

[Q] Query (sequence): `RRIRKRPPRLPRPRPRPHCWPRP` ; field requested: shrunken log2 fold change
[A] 0.17

[Q] # query: shrunken log2 fold change of entry `RRIRTRPPRLPRPRPRPHYKPRP`
[A] -0.531

[Q] Entry `RRIRERPPRLPRPRPRPCYSPRP` has what shrunken log2 fold change?
[A] -0.704

---

# Test system: Escherichia coli TOP10
# experimental-details: shrunken log2 fold change of peptide-encoding DNA abundance (4.5 h post-induction vs induction); higher = less antimicrobial activity (less host growth inhibition)
# test-context: time post-induction: 4.5 h; library: site-saturation at positions 5, 18, 19, 20
Measured shrunken log2 fold change values are reported for all entries that follow.
When you answer, write just the number.

In [3]: df
Out[3]:
                  residues  reading
0  RRIRMRPPRLPRPRPRPHHWPRP    0.439

Note: attention shifts to another entry.
[Q] Can you look up the measured shrunken log2 fold change of `RRIRKRPPRLPRPRPRPPFSPRP` for me?
[A] -0.227

---

# Test system: Escherichia coli TOP10
# experimental-details: shrunken log2 fold change of peptide-encoding DNA abundance (4.5 h post-induction vs induction); higher = less antimicrobial activity (less host growth inhibition)
# test-context: time post-induction: 4.5 h; library: site-saturation at positions 5, 18, 19, 20
Below is a list of entries, each paired with its recorded shrunken log2 fold change value.
Field format: numeric only.

Look over these answered cases.
>>> df
                  residues            recorded_metric  reading
0  RRIRKRPPRLPRPRPRPGCSPRP  shrunken log2 fold change    0.289
1  RRIRNRPPRLPRPRPRPLNKPRP  shrunken log2 fold change   -0.256
2  RRIRFRPPRLPRPRPRPMKIPRP  shrunken log2 fold change     0.25
3  RRIRIRPPRLPRPRPRPCCSPRP  shrunken log2 fold change     -1.1
4  RRIRRRPPRLPRPRPRPKGKPRP  shrunken log2 fold change    0.195
5  RRIRNRPPRLPRPRPRPWYIPRP  shrunken log2 fold change  0.00246

[Q] Identify the measured shrunken log2 fold change of `RRIRHRPPRLPRPRPRPMFYPRP` for Escherichia coli TOP10.
[A] -0.446

[Q] Fill in the recorded shrunken log2 fold change for this sequence, with Escherichia coli TOP10 as test system: `RRIRPRPPRLPRPRPRPRNWPRP`
[A] 0.195

[Q] # get_value(readout= shrunken log2 fold change, system= Escherichia coli TOP10) for `RRIRYRPPRLPRPRPRPIKCPRP`
[A] -0.00104

---

# Test system: Escherichia coli TOP10
# experimental-details: shrunken log2 fold change of peptide-encoding DNA abundance (4.5 h post-induction vs induction); higher = less antimicrobial activity (less host growth inhibition)
# test-context: time post-induction: 4.5 h; library: site-saturation at positions 5, 18, 19, 20
Short version: shrunken log2 fold change at least -0.05 is 1, less is -1.

>>> df
                  residues  assigned_class
0  RRIRERPPRLPRPRPRPTEMPRP               1
1  RRIRVRPPRLPRPRPRPVHCPRP              -1
2  RRIRIRPPRLPRPRPRPMELPRP               1
3  RRIRYRPPRLPRPRPRPAKHPRP              -1
4  RRIRTRPPRLPRPRPRPNHVPRP              -1
5  RRIRNRPPRLPRPRPRPVVWPRP               1
6  RRIRCRPPRLPRPRPRPYWFPRP              -1
7  RRIRKRPPRLPRPRPRPWEFPRP               1

[Q] Is shrunken log2 fold change at least -0.05? Consider `RRIRSRPPRLPRPRPRPTADPRP`
[A] 1

[Q] Does `RRIRYRPPRLPRPRPRPQLFPRP` have a reported shrunken log2 fold change of at least -0.05?
[A] -1

[Q] shrunken log2 fold change >= -0.05 for `RRIRYRPPRLPRPRPRPWEEPRP` ?
[A] 1

[Q] # bool: shrunken log2 fold change of `RRIRLRPPRLPRPRPRPEESPRP` >= -0.05
[A] 1

[Q] Reported shrunken log2 fold change at or above -0.05? `RRIRSRPPRLPRPRPRPFHHPRP`
[A] -1

---

# System: Escherichia coli TOP10;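 further: peptides expressed intracellularly from a pBAD plasmid library in pooled LB shake-flask culture, induced with 0.3% L-arabinose, DNA abundance read by NGS, three biological replicates, DESeq2 with apeglm shrinkage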
# experimental-details: shrunken log2 fold change of peptide-encoding DNA abundance (4.5 h post-induction vs induction); higher = less antimicrobial activity (less host growth inhibition)
# test-context: time post-induction: 4.5 h; library: site-saturation at positions 5, 18, 19, 20
recorded-metric: shrunken log2 fold change
Returns: the value as a bare number; no unit string appended.

# annotated cases, reported shrunken log2 fold change shown
                  residues            recorded_metric  reading
0  RRIRGRPPRLPRPRPRPNSNPRP  shrunken log2 fold change   0.0841
1  RRIRHRPPRLPRPRPRPRSLPRP  shrunken log2 fold change    0.295
2  RRIRNRPPRLPRPRPRPDTYPRP  shrunken log2 fold change  -0.0291
3  RRIRGRPPRLPRPRPRPRYRPRP  shrunken log2 fold change   0.0699
4  RRIRGRPPRLPRPRPRPGAQPRP  shrunken log2 fold change     1.19
5  RRIRDRPPRLPRPRPRPEVDPRP  shrunken log2 fold change  0.00961
6  RRIRWRPPRLPRPRPRPITMPRP  shrunken log2 fold change  -0.0679
7  RRIRHRPPRLPRPRPRPCNCPRP  shrunken log2 fold change   0.0668

[Q] Entry `RRIRYRPPRLPRPRPRPYHEPRP` has what shrunken log2 fold change?
[A] -0.194

[Q] I am curious: what shrunken log2 fold change value has been reported for `RRIRTRPPRLPRPRPRPDHQPRP` ?
[A] -0.0261

[Q] Param item = `RRIRGRPPRLPRPRPRPPPPPRP` ; retrieve measured shrunken log2 fold change.
[A] 1.54

[Q] Recorded shrunken log2 fold change of `RRIRRRPPRLPRPRPRPTHEPRP` , please.
[A] 0.338

[Q] I am curious: what shrunken log2 fold change value has been reported for `RRIRSRPPRLPRPRPRPMITPRP` ?
[A] -0.19

[Q] // query shrunken log2 fold change value for entry `RRIRYRPPRLPRPRPRPDAWPRP`
[A] 0.0522

[Q] Fill in the blank: the reported shrunken log2 fold change of `RRIRVRPPRLPRPRPRPVTFPRP` is ____.
[A] -0.467

[Q] Which shrunken log2 fold change value belongs to `RRIRCRPPRLPRPRPRPGYNPRP` ?
[A] -0.88

[Q] Which shrunken log2 fold change is reported for this sequence? `RRIRARPPRLPRPRPRPDNSPRP`
[A] -0.269

[Q] Which shrunken log2 fold change value is on record for `RRIRLRPPRLPRPRPRPIWEPRP` ?
[A] 0.0805

[Q] Entry under review: `RRIRMRPPRLPRPRPRPHLMPRP` . Reported shrunken log2 fold change?
[A] 0.151

[Q] Any idea what shrunken log2 fold change was measured for `RRIRGRPPRLPRPRPRPIKGPRP` ?
[A] -0.0627

[Q] Look up shrunken log2 fold change: `RRIRMRPPRLPRPRPRPCGIPRP`
[A] -0.0517

[Q] Data request, read-out shrunken log2 fold change, for `RRIRSRPPRLPRPRPRPTYMPRP`
[A] -0.55

[Q] Name the reported shrunken log2 fold change value associated with the sequence `RRIRPRPPRLPRPRPRPAQTPRP`
[A] 0.177

[Q] # query: shrunken log2 fold change of entry `RRIRQRPPRLPRPRPRPEHPPRP`
[A] 0.0713

[Q] Using the record for `RRIRLRPPRLPRPRPRPNHGPRP` , report its shrunken log2 fold change.
[A] -0.17

[Q] So what does the record say about shrunken log2 fold change for `RRIRCRPPRLPRPRPRPFIYPRP` ?
[A] -0.808
